Field: MIC. Provide a value for each of the compounds that follow.
test system: Mycobacterium avium; conditions: isolate MAV4

Problem: Requested field: MIC. Item: CN(C)CCCN1c2ccccc2Sc2ccc(Cl)cc21 [CHLORPROMAZINE]
Solution: 2 µg/mL

Problem: Requested field: MIC. Item: "CCCOc1ccc(-c2cn(CCN3CCCCC3)c3ccccc3c2=O)cc1"
Solution: < 0.25 µg/mL

Problem: Requested field: MIC. Item: "CCCOc1ccc(-c2cn(CCN3CCCCCC3)c3ccccc3c2=O)cc1"
Solution: < 0.25 µg/mL

Problem: Requested field: MIC. Item: "CCCOc1ccc(-c2cn(CCN(CC)CC)c3ccccc3c2=O)cc1"
Solution: 2 µg/mL

Problem: Requested field: MIC. Item: CSc1ccc2c(c1)N(CCC1CCCCN1C)c1ccccc1S2 (stereo not given) [THIORIDAZINE]
Solution: 4 µg/mL

Reference source for all entries: ChEMBL document CHEMBL4130462
